Attribution: PubChem BioAssay AID2060502

Listing of recorded viability, T/C by entry.
- Tested on: 885724-159-R-J1-PDC complex spheroid viability;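 further: spheroids exposed to agents for seven days before readout; percent of vehicle control viability where 100% = DMSO wells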
- measurement description: Anticancer human tumor 885724-159-R-J1-PDC patient-derived pancreatic adenocarcinoma cell line growth inhibition [GQUAD]
- test settings: second compound 10 µM; first compound 3.16 µM; stronger effect = lower value

| compound | unit of measure | viability, T/C |
| --- | --- | --- |
| C=CCn1c(=O)c2cnc(Nc3ccc(N4CCN(C)CC4)cc3)nc2n1-c1cccc(C(C)(C)O)n1 + CN(C)c1ccc(Nc2c3ccc(NC(=O)CCN4CCCC4)cc3nc3cc(NC(=O)CCN4CCCC4)ccc23)cc1 | % | 45.7 |
| CC(C)(O)C1CCC(Nc2ccc3ncc(-c4cccc(C(F)(F)F)c4)n3n2)CC1 (stereo not given) + Cc1[nH]c2ccc(F)cc2c1-c1nc2c3cccnc3c3ncccc3c2[nH]1 | % | 28.2 |
| CC1COCCN1c1cc(C2(O)CC3CCC(C2)O3)c2cnn(-c3ccn[nH]3)c2n1 (stereo not given) + CN(C)c1ccc(Nc2c3ccc(NC(=O)CCN4CCCC4)cc3nc3cc(NC(=O)CCN4CCCC4)ccc23)cc1 | % | 35.6 |
| C=CC(=O)N1CCN(c2nc(=O)n(-c3c(C)ccnc3C(C)C)c3nc(-c4c(O)cccc4F)c(F)cc23)C(C)C1 (stereo not given) + CN(C)c1ccc(Nc2c3ccc(NC(=O)CCN4CCCC4)cc3nc3cc(NC(=O)CCN4CCCC4)ccc23)cc1 | % | 87.6 |
| COc1cc(C2c3cc4c(cc3C(OC3OC5COC(C)OC5C(O)C3O)C3COC(=O)C23)OCO4)cc(OC)c1O (stereo not given) + Cc1cnc(CNC(=O)c2c(=O)c3ccc(N4CCCN(C)CC4)nc3n3c2sc2ccccc23)cn1 | % | 78.3 |
